What log10(solubility kinetic) was measured for each of the following?
cond: buffer; pH 7.4; 200.0 µM
Note the log scale: values are log10 of solubility kinetic expressed in µg/mL.

// worked examples, log10(solubility kinetic) included
{"columns": ["molecule", "log10(solubility kinetic)"],
 "data": [
  ["O=S1(=O)CCN(OCc2ccc(F)cc2Cl)CC1", 1.63],
  ["COc1ccc2[nH]c(C)c(C(=O)CN(C)CC3OCCO3)c2c1", 1.66],
  ["O=S(=O)(c1ccccc1)c1nc(-c2ccccc2Cl)oc1NCCCN1CCOCC1", 0.56],
  ["CC1CCC(NS(=O)(=O)c2ccc(Cl)nc2)CC1 (configuration not stated)", 1.53],
  ["O=C(NCc1ccc(Cl)cc1)c1nccnc1CO", 1.61],
  ["O=C(O)c1nccnc1C(=O)NCc1csc2ccc(Cl)cc12", 1.67]
]}

// batch mode: one log10(solubility kinetic) value per listed entry
1. O=C(Nc1cc(S(=O)(=O)N2CCCCC2)ccc1Cl)C1COc2ccccc2O1 (configuration not stated)
2. COc1ccc(C(=O)OCC(=O)N2CCc3ccccc32)cc1S(=O)(=O)N1CCOCC1
3. O=C(O)C1CCCCC1C(=O)NC(c1ccccc1)c1ccccc1 (configuration not stated)
4. O=S(=O)(c1cccc2nonc12)N1CCCCCC1

RESULT:
1: 0.73; 2: 1.39; 3: 1.69; 4: 1.20
